Test system: NCI-H1792 cells
protocol_details: Anti proliferative activity in NCI-H1792 cells by XTT assay
Assay type: cell-based
test_context: Homo sapiens, NCI-H1792, 72 h, H1792 cell line, 72 hours incubation
pIC50: −log10 of the molar value.
parameter_measured: pIC50

CC(C)=CC(=O)N1CCN(C(=O)NC(C)C#Cc2ccc(Cl)c(Cl)c2)CC1 (centres unmarked)
< 4.60

Inquiry: Item C/C=C/C(=O)N1CCN(C(=O)NC(C)C#Cc2ccc(Cl)c(Cl)c2)CC1 (centres unmarked) has what recorded pIC50?
Reply text: < 4.60

Inquiry: Item C=CC(=O)N1CCN(C(=O)NC(C#Cc2ccc(Cl)c(Cl)c2)C(C)C)CC1 (centres unmarked) has what recorded pIC50?
Reply text: 4.60 to 5.00

Inquiry: Item C=CC(=O)N[C@H]1CC[C@H](C(=O)NC(C)C#Cc2ccc(Cl)c(Cl)c2)CC1 (some centres unmarked) has what recorded pIC50?
Reply text: < 4.60

Inquiry: Item C=CC(=O)N1CCN(C(=O)NC(C)C#Cc2ccc(Cl)c(Cl)c2)CC1 (single isomer, unassigned) [Example 1a] has what recorded pIC50?
Reply text: > 5.00

Inquiry: Item C=CS(=O)(=O)NC1CC2CC1CN2C(=O)NC(C)C#Cc1ccc(Cl)c(Cl)c1 (centres unmarked) has what recorded pIC50?
Reply text: 4.60 to 5.00

Inquiry: Item C=CC(=O)N1CCN(C(=O)NC(C)(C)C#Cc2ccc(Cl)c(Cl)c2)CC1 has what recorded pIC50?
Reply text: > 5.00

Inquiry: Item C=CC(=O)N1CCN(C(=O)NC(C)C#Cc2ccc(C(F)(F)F)c(Cl)c2)CC1 (centres unmarked) has what recorded pIC50?
Reply text: 4.60 to 5.00

---

Tested on: NCI-H2122 cells
protocol_details: Anti proliferative activity in NCI-H2122 cells by XTT assay
Format: cell-based
test_context: Homo sapiens, NCI-H2122, 192 h, H2122 cell line, 8 days (192 hour) incubation
pIC50: −log10 of the molar value.
Measured pIC50 of individual entries

Examples with answers:
CC(C#Cc1ccc(Cl)c(Cl)c1)NC(=O)N1CCN(C(=O)CC#N)CC1 (stereo not drawn)
< 4.60
CC(C#Cc1ccc(Cl)c(Cl)c1)NC(=O)N1CCN(C(=O)C2(C#N)CC2)CC1 (racemic)
< 4.60
CC(C#Cc1ccc(Cl)c(Cl)c1)NC(=O)N1CCC(N2C(=O)C=CC2=O)CC1 (stereo not drawn)
> 5.00
C=CC(=O)N1CC(N2CCN(C(=O)NC3(C#Cc4ccc(Cl)c(C5(C)CC5)c4)CC3)CC2)C1
> 5.00
C=CC(=O)N1CCN(C(=O)NC(C)C#Cc2ccc(Cl)s2)CC1 (stereo not drawn)
4.60 to 5.00

Inquiry: Item C=CC(=O)N1CCN(C(=O)NC2(C#Cc3ccc(Cl)c(Cl)c3)CCCC2)CC1 has what recorded pIC50?
Reply text: > 5.00

---

Test system: NCI-H1792 cells
protocol_details: Anti proliferative activity in NCI-H1792 cells by XTT assay
Type: cell-based
test_context: Homo sapiens, NCI-H1792, 72 h, H1792 cell line, 72 hours incubation
parameter_measured: IC50

Examples with answers:
CCOC(=O)/C=C/C(=O)N1CCN(C(=O)NC(C)C#Cc2ccc(Cl)c(Cl)c2)CC1 (stereo not drawn) [Example 57]
< 10 µM
C=CC(=O)N1CCN(C(=O)NC(C)C#Cc2cccc3c2cnn3C)CC1 (stereo not drawn) [Example 11]
> 25 µM
C=CC(=O)NC1CC2CC1CN2C(=O)NC(C)C#Cc1ccc(Cl)c(Cl)c1 (stereo not drawn) [Example 55]
> 25 µM

Inquiry: Item C=CC(=O)N1CCN(C(=O)NC(C)C#Cc2ccc3ccccc3c2)CC1 (stereo not drawn) [Example 9] has what recorded IC50?
Reply text: > 25 µM

Inquiry: Item CC(C#Cc1ccc(Cl)c(Cl)c1)NC(=O)N1CCN(C(=O)/C=C/c2ccccc2)CC1 (stereo not drawn) [Example 13] has what recorded IC50?
Reply text: > 25 µM

Inquiry: Item C=CC(=O)N1CCC(C(=O)NC(C)C#Cc2ccc(Cl)c(Cl)c2)CC1 (stereo not drawn) [Example 70] has what recorded IC50?
Reply text: < 10 µM

Inquiry: Item C=CC(=O)N1CCN(C(=NC#N)NC(C)C#Cc2ccc(Cl)c(Cl)c2)CC1 (racemic) [Example 54] has what recorded IC50?
Reply text: < 10 µM

Inquiry: Item C=CC(=O)N1CC(N2CCN(C(=O)NC(C)C#Cc3ccc(Cl)c(Cl)c3)CC2)C1 (stereo not drawn) [Example 8] has what recorded IC50?
Reply text: < 10 µM

Inquiry: Item CC(C#Cc1ccc(Cl)c(Cl)c1)NC(=O)N1CCN(C(=O)C(C)Cl)CC1 (stereo not drawn) [Example 16] has what recorded IC50?
Reply text: 10 to 25 µM
